tested on: ovariectomized (OVX) rats; experiment: Uterine eosinophil peroxidase (EPO) assay; assay type: in vivo, Sprague Dawley rats; design: unit not given here; settings: dose 0.1 mg/kg, oral, daily for 4 days, test compounds in CDX susp. or soln.
Quantity: Uterine EPO (V. max)

Worked examples follow.
O=C(O)/C=C/c1ccc(C(=O)c2c(-c3ccc(O)cc3)sc3cc(O)ccc23)cc1 [Example 3] ... 0.9
C#C[C@]1(O)CC[C@H]2[C@@H]3CCc4cc(O)ccc4[C@H]3CC[C@@]21C [EE2, 17α-ethynyl estradiol, reference compound] ... 130.5
O=C(O)CCc1ccc(C(=O)c2c(-c3ccc(O)cc3)sc3cc(O)ccc23)cc1 [Example 4] ... 0.0

Query: Determine its reported Uterine EPO (V. max): COc1ccc(-c2sc3cc(OC)ccc3c2C(=O)c2ccc(/C=C/C(=O)O)cc2)cc1 [Example 2]
Response: 2.1

* * *

Please provide measured Uterine weight (% increase vs. OVX) for the entries that follow.
system: ovariectomized (OVX) rats; assay: Uterine wet weight in ovariectomized rat post-menopausal model; format: in vivo, Sprague Dawley rats; settings: dose 0.1 mg/kg, oral, daily for 4 days, OVX rats; test compounds in CDX (cyclodextrin) susp. or soln.
Give bare numbers, in %.

C#C[C@]1(O)CC[C@H]2[C@@H]3CCc4cc(O)ccc4[C@H]3CC[C@@]21C [EE2, 17α-ethynyl estradiol, reference compound] ... 201.3
O=C(O)CCc1ccc(C(=O)c2c(-c3ccc(O)cc3)sc3cc(O)ccc23)cc1 ... −45.9
O=C(O)/C=C/c1ccc(C(=O)c2c(-c3ccc(O)cc3)sc3cc(O)ccc23)cc1 ... 23.9

Query: Determine its reported Uterine weight (% increase vs. OVX): COc1ccc(-c2sc3cc(OC)ccc3c2C(=O)c2ccc(/C=C/C(=O)O)cc2)cc1
Response: 25.0

Values from patent US6440958B1
